Known FACS Cell Binding of a selection of molecules
# Experimental Target: T1, mouse PRLR on HEK293/mPRLR cells (Mus musculus, UniProt Q08501)
# T1 construct: HA; expressed in transfected cells; host or cells: HEK293
# T1 sequence (Q08501 20-608): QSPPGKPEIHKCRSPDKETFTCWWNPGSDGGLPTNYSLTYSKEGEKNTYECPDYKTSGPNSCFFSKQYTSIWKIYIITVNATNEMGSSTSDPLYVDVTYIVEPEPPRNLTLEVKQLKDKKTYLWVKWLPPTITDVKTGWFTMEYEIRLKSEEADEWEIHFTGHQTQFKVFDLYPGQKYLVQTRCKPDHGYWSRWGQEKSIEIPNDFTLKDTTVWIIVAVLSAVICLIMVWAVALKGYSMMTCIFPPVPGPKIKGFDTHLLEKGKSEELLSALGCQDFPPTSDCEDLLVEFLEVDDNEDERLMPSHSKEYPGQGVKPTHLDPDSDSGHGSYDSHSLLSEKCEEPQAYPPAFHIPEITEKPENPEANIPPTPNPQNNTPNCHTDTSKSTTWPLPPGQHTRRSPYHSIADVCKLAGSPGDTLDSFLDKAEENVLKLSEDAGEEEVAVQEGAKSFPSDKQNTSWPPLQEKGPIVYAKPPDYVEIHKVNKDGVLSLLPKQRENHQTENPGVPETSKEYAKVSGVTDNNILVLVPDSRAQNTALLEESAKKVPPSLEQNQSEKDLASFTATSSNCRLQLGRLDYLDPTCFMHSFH
# Measurement Protocol: FACS cell surface binding
Please make sure the unit comes right after the number.

Previously resolved entries follow.
Molecule	FACS Cell Binding
H1H6797P: fully human anti-PRLR antibody, human IgG1 Fc; HCVR/LCVR SEQ ID NOs 178/186 (antibody, V domains shown) VH: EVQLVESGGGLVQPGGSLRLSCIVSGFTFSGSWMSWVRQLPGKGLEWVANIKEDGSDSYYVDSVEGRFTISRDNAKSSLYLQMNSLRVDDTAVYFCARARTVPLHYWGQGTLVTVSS VL: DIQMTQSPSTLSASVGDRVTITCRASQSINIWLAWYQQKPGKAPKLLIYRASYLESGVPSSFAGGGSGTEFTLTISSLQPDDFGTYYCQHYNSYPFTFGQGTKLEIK	2 Fold Above Background
H1H6953N: anti-PRLR antibody, human IgG1 Fc form of H1M6953N of Table 1; HCVR/LCVR SEQ ID NOs 274/282 (antibody, V domains shown) VH: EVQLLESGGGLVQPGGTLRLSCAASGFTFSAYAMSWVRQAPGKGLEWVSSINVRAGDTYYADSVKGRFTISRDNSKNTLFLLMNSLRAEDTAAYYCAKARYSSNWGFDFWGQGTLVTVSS VL: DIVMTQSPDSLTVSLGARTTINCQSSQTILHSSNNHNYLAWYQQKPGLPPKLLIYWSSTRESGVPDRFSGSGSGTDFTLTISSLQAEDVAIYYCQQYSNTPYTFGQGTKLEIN	2 Fold Above Background

# get_value(readout='FACS Cell Binding', item= H1H6793P: fully human anti-PRLR antibody, human IgG1 Fc; HCVR/LCVR SEQ ID NOs 146/154 (antibody, V domains shown) VH: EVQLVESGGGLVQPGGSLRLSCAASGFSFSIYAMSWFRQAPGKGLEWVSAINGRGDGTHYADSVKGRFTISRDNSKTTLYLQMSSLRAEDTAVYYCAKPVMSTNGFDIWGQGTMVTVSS VL: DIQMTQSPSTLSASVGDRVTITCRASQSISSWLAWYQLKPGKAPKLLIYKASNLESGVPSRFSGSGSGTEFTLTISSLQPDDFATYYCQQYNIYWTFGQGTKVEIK )
2 Fold Above Background

// query FACS Cell Binding value for entry H1H6781P: fully human anti-PRLR antibody, human IgG1 Fc; HCVR/LCVR SEQ ID NOs 50/58 (antibody, V domains shown) VH: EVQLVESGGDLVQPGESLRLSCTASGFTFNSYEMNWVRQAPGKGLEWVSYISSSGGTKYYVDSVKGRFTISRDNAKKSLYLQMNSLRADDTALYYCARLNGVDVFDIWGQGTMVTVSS VL: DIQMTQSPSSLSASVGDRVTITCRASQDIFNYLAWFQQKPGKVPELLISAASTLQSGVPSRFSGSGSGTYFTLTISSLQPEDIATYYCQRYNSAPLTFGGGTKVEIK
1 Fold Above Background
